Exercise: state measured pIC50 for each of the molecules provided.
# Tested on: M. tuberculosis H37Rv growth inhibition with meropenem
# measurementDescription: dose response, H37Rv, with and without meropenem (AID 434987);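 further: growth over 7 days at 37 °C before Alamar Blue read on day 9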
# measurementSetup: M. tuberculosis H37Rv growth inhibition; measured here: IC50 without meropenem
pIC50: −log10 of the molar value.

Lab note: need pIC50 with M. tuberculosis H37Rv growth inhibition with meropenem for entry CCCCN1C(=O)c2ccc(C(=O)Nc3cccc(C)c3C)cc2C1=O , please look it up.
< 4.00

What measured pIC50 is associated with Cc1ccc(CSc2nccc(-c3c(C)nc4ccccn34)n2)cc1 on M. tuberculosis H37Rv growth inhibition with meropenem?
4.65

# query: pIC50 | item c1ccc(CSc2nnc(-c3ccco3)o2)cc1 | system: M. tuberculosis H37Rv growth inhibition with meropenem
< 4.00

Return pIC50 measured with M. tuberculosis H37Rv growth inhibition with meropenem given this molecule: COc1ccc(-c2cc3nc(C)cc(N4CC(C)CC(C)C4)n3n2)cc1 (configuration not stated)
< 4.00

# returns recorded pIC50 (system: M. tuberculosis H37Rv growth inhibition with meropenem) for Cc1n[nH]c(C)c1CCCOc1ccccc1
4.40

Lab note: need pIC50 for Cc1cccc2nc(COc3ccc4ccccc4c3Br)cn12 on M. tuberculosis H37Rv growth inhibition with meropenem, anyone have it?
4.32

Lab request: please report pIC50 under test system M. tuberculosis H37Rv growth inhibition with meropenem for CC(=O)COc1ccc2c3c(c(=O)oc2c1C)CCCCC3
< 4.00

pIC50 of C/C(=N\NC(=O)c1ccccc1O)c1ccc(Br)s1 on M. tuberculosis H37Rv growth inhibition with meropenem?
< 4.00

Missing value: pIC50, M. tuberculosis H37Rv growth inhibition with meropenem, entry O=c1oc(-c2cccs2)nc2sc3c(c12)CCCC3 . Fill in?
< 4.00

Record CCN=c1scc(-c2ccccc2)n1/N=C/c1ccccn1 : what is its pIC50 with M. tuberculosis H37Rv growth inhibition with meropenem?
< 4.00

Entry Cc1c(C(=O)Nc2cccnc2)oc2ccc(Br)cc12 , system M. tuberculosis H37Rv growth inhibition with meropenem: what pIC50 was measured?
< 4.00

Given the entry O=c1cc(C(F)(F)F)c2sc(N3CCCCC3)nc2[nH]1 , what pIC50 was observed with M. tuberculosis H37Rv growth inhibition with meropenem?
< 4.00

* * *

# Tested on: M. tuberculosis H37Rv growth inhibition with meropenem
# measurementDescription: dose response, H37Rv, with and without meropenem (AID 434987);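 further: growth over 7 days at 37 °C before Alamar Blue read on day 9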
# measurementSetup: measured here: IC90 with meropenem
Could you please report measured IC90 for the items listed next?

I'd like to know its IC90. The compound in question is O=c1cc(C(F)(F)F)c2sc(N3CCCCC3)nc2[nH]1
49.3 µM

So what does the record say about IC90 for Cc1ccccc1NC(=O)/C(C#N)=C\c1cc(C)n(-c2ccc(C(=O)O)cc2)c1C ?
51.1 µM

# IC90 lookup, item COCCCn1c(=O)/c(=C\c2cccc(OC)c2OC)s/c1=C(/C#N)C(=O)Nc1ccc(C(=O)O)cc1
24.6 µM

IC90 for Cc1ccc(OCC(=O)Nc2ccc3c4c(cccc24)CC3)c(C)c1 ?
> 100 µM

Request the reported IC90 associated with CCOC(=O)Cn1c(C)cc(=O)c2cccc(C)c21
> 100 µM

Find the recorded IC90 belonging to O=C(/C=C/c1ccccc1)NC1CC2CCC1C2 (configuration not stated) and report it.
> 100 µM

Need IC90 of CCOC(=O)/C=C/c1ccc2c(c1)S(=O)(=O)N(Cc1ccc(OC)cc1)[C@H]2CC(=O)OCC , thanks.
> 100 µM

I have this compound here, Cn1cccc1/C=C1/C(=O)NC(=O)N(Cc2ccc(F)cc2)C1=O , and I need its recorded IC90.
> 50 µM

Consider the compound shown here: CCOc1cc(C(=O)N2CCC(CC3CC(c4ccccc4)=NO3)(C(=O)NCc3ccc(OC)cc3)CC2)cc(OCC)c1OCC (configuration not stated) What is its recorded IC90?
> 100 µM

I am curious: what IC90 value has been reported for C/C(=N\NC(N)=S)c1ccc(-n2ccnc2)cc1 ?
> 100 µM

Which IC90 reading was recorded for the compound O=C(Nc1ccccc1N1CCCC1)c1ccc2c(c1)OCO2 ?
> 100 µM

// IC90 lookup, key: COc1ccc2ccccc2c1/C=N/NC(=O)c1cccc(C)c1
> 100 µM

Which value of IC90 has been reported for O=C(Cn1nnc2c(cnn2-c2ccccc2)c1=O)N1CCN(c2ccccc2F)CC1 in the records?
> 100 µM

So what does the record say about IC90 for C[C@H](NC(=O)c1[nH]cnc1C(=O)Nc1ccc(Cl)cc1)C(=O)OC(C)(C)C ?
> 100 µM

Name the recorded IC90 for C#CCOc1c(Cl)cc(/C=N/NC(N)=S)cc1OCC .
> 100 µM

Which measured IC90 value corresponds to Cc1c(OCc2ccc(C(=O)O)cc2)ccc2c(-c3ccccc3)cc(=O)oc12 ?
2.09 µM

IC90 for CSCC(=O)Nc1ccc(F)c(Cl)c1 ?
> 100 µM

// query IC90 value for entry Cc1cc(C)c(-c2c(O)c3ccccc3n(C)c2=O)c(C)c1
42.2 µM

Endpoint output: IC90 of O=C(Nc1ccc(Cl)cc1F)c1cccc2ccccc12 . Value?
> 100 µM

Name the recorded IC90 for CCOc1ccc(N(CC(=O)NCCSCc2ccccc2Cl)S(C)(=O)=O)cc1 .
> 100 µM

For the compound shown here, O=C(Nc1cccc(S(=O)(=O)NCc2ccco2)c1)c1cc(-c2ccc(F)cc2)nc2ccccc12 , give the reported IC90.
> 100 µM

For CC(C)(C)c1cc(Cc2ccccc2)[nH]n1 , what is its reported IC90?
> 100 µM
